I'd be grateful if you could share measured viscosity for these entries.
settings: 363.15 K; 101.33 kPa; Liquid; Concentric cylinders viscometry
# do not omit the unit; it follows the number

Ask: Fill in the blank: the reported viscosity of CC(=O)[O-].CCn1cc[nH+]c1 [1-ethyl-1H-imidazolium acetate] is ____.
Reply: 1.412 mPa·s

Ask: Fill in the blank: the reported viscosity of CC(=O)[O-].CCCCn1cc[n+](C)c1 [1-butyl-3-methylimidazolium acetate] is ____.
Reply: 15.08 mPa·s

Ask: Fill in the blank: the reported viscosity of CC(=O)[O-].CCCC[N+]1(C)CCCC1 [1-butyl-1-methylpyrrolidinium acetate] is ____.
Reply: 8.983 mPa·s

***
Ask: Fill in the blank: the reported viscosity of CC(=O)O.CCN(C)C [N,N-dimethylethanamine acetate] is ____.
Reply: 2.691 mPa·s
